system-name: human ether-à-go-go-related gene (hERG) potassium channel (human, UniProt Q12809);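 also: peak tail current of the secondary pulse compared with the same well before compound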
Sequence (Q12809 whole entry, looked up): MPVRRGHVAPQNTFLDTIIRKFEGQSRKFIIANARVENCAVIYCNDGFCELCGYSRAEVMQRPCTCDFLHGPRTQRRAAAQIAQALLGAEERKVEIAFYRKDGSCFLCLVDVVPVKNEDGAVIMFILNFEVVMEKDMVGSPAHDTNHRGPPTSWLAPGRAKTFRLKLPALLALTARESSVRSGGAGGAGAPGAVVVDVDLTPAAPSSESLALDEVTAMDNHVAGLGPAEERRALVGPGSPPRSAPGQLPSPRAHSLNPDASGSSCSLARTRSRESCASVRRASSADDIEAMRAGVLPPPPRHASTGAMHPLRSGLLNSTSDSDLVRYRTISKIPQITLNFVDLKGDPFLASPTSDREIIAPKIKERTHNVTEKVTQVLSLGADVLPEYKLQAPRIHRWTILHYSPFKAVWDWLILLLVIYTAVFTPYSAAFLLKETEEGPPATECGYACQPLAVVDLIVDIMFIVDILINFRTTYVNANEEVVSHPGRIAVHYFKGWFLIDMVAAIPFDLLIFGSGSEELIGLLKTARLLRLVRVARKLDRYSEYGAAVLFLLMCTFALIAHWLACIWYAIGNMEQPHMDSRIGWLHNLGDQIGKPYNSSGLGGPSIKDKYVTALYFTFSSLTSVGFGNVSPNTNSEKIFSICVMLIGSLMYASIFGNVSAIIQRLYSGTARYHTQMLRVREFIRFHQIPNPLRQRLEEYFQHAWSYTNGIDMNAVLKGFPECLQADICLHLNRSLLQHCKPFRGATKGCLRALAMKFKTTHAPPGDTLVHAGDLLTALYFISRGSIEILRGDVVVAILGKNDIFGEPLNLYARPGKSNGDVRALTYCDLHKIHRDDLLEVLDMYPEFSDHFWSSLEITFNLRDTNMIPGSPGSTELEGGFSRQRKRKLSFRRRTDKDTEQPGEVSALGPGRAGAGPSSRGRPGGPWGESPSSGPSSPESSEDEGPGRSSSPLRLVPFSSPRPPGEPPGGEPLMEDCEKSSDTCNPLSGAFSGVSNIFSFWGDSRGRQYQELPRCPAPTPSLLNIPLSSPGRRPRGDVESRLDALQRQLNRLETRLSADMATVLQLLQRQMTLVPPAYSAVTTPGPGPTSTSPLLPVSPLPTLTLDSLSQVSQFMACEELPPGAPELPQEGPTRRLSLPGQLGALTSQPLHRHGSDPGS
assay-name: primary screen, population patch clamp on CHO cells stably expressing hERG; higher = less effect of the substance
The whole screen tested about 310,000 compounds, of which about 14,000 (4.5%) showed an effect of 50% or more. The effect is printed as a negative number. The sample holds strong results, similar compounds and a random draw of the others, so the mix is not that of the screen.
Form field: hERG current change (%, negative = inhibition) at 10uM (one value per entry).
metric-name: hERG current change (%, negative = inhibition) at 10uM (%)

[[record]]
molecule = "COc1cc(/C=C(\\C#N)c2nc3ccccc3[nH]2)cc(Br)c1OCc1ccccc1"
units = "%"
quantitative_readout = 0.571

[[record]]
molecule = "O=C(O)c1ccc(C(=O)O)c(C(=O)c2ccccc2)c1"
units = "%"
quantitative_readout = 1.72

[[record]]
molecule = "O=C(c1cc([N+](=O)[O-])ccc1N1CCOCC1)N1CCN(c2ccc([N+](=O)[O-])cc2)CC1"
units = "%"
quantitative_readout = -79.8

[[record]]
molecule = "COc1ccc(-c2csc3[nH]c(=S)n(-c4ccccc4)c(=O)c23)cc1OC"
units = "%"
quantitative_readout = 23.8

[[record]]
molecule = "COC(=O)C1CCN(Cc2c(C(=O)N3C[C@@H](C)O[C@@H](C)C3)nc3ccc(Cl)cn23)CC1"
units = "%"
quantitative_readout = 21.1

[[record]]
molecule = "COC(=O)Nc1ccc(S(=O)(=O)N2CCCCC2)cc1"
units = "%"
quantitative_readout = -4.21

[[record]]
molecule = "CNc1nnc(-c2ccncc2)s1"
units = "%"
quantitative_readout = -0.587

[[record]]
molecule = "Clc1ccc(N2CCN(Cc3ccc(Br)o3)CC2)cc1"
units = "%"
quantitative_readout = 7.93

[[record]]
molecule = "COc1cc(NS(=O)(=O)c2ccc(NC(=S)NC(=O)c3ccco3)cc2)ncn1"
units = "%"
quantitative_readout = 20.4

[[record]]
molecule = "Cc1nnc(SCC(=O)NC2CCCCCC2)n1C"
units = "%"
quantitative_readout = 23.4

[[record]]
molecule = "O=C(O)c1ccc(COc2ccc3c4c(c(=O)oc3c2)CCC4)o1"
units = "%"
quantitative_readout = 21.4

[[record]]
molecule = "CCN1/C(=C\\C=C\\C2=[N+](CC)c3ccccc3C2(C)C)C(C)(C)c2ccccc21.[O-][Cl+3]([O-])([O-])[O-]"
units = "%"
quantitative_readout = -96.7

[[record]]
molecule = "Cc1ccc(S(=O)(=O)N2CCN(C(=O)c3cc(S(=O)(=O)N(C)C)ccc3N3CCCC3)CC2)cc1"
units = "%"
quantitative_readout = -11.1

[[record]]
molecule = "Nc1c(N=O)c(=O)[nH]c(=O)n1-c1ccccc1"
units = "%"
quantitative_readout = 10.2

[[record]]
molecule = "CN(C)S(=O)(=O)c1ccc(N2CCCC2)c(C(=O)N2CCN(c3ccc([N+](=O)[O-])cc3)CC2)c1"
units = "%"
quantitative_readout = -76.7

[[record]]
molecule = "O=C(c1ccc(F)cc1)N1CCCCC(Sc2nnc3ccccn23)C1=O (stereo not drawn)"
units = "%"
quantitative_readout = -59.9

[[record]]
molecule = "CCCCOc1ccccc1C1NC(=O)NC(C)=C1C(=O)OCCOCC (stereo not drawn)"
units = "%"
quantitative_readout = -8.27

[[record]]
molecule = "O=C(c1ccc(S(=O)(=O)Nc2ccccc2F)cc1)N1CCCCCC1"
units = "%"
quantitative_readout = 2.93

[[record]]
molecule = "CCN1C(=O)C(O)(CC(=O)/C=C/C=C/c2ccccc2)c2ccccc21 (stereo not drawn)"
units = "%"
quantitative_readout = -0.629

[[record]]
molecule = "Cc1ccc2c(C(=O)N3CCN(c4ccccc4)CC3)cc(-c3cccnc3)nc2c1C"
units = "%"
quantitative_readout = 4.03

[[record]]
molecule = "O=C(c1cc(=O)[nH]c2ccccc12)N1CCN(c2ccccc2)CC1"
units = "%"
quantitative_readout = 2.12

[[record]]
molecule = "CCOC(=O)c1[nH]c2ccccc2c1NC(=S)Nc1cccc(C)c1C"
units = "%"
quantitative_readout = -5.81

[[record]]
molecule = "CN(C)S(=O)(=O)Oc1ccc(Cl)cc1C(=O)Nc1ccc(F)cc1F"
units = "%"
quantitative_readout = -3.01

[[record]]
molecule = "O=C(c1ccccc1)N1CCCCC(Sc2nnc3ccccn23)C1=O (stereo not drawn)"
units = "%"
quantitative_readout = 5.24

[[record]]
molecule = "Cc1cc2nnc(SC3CCCCN(C(=O)c4ccc(F)cc4)C3=O)n2c2ccccc12 (stereo not drawn)"
units = "%"
quantitative_readout = -13.2

[[record]]
molecule = "O=C(c1cc([N+](=O)[O-])ccc1N1CCOCC1)N1CCN(c2ccccc2)CC1"
units = "%"
quantitative_readout = -32.3

[[record]]
molecule = "COc1ccc(OC)c(C2=CC(=O)C[C@H](c3ccc4c(c3)OCO4)C2)c1"
units = "%"
quantitative_readout = -10.6

[[record]]
molecule = "COc1ccc2[nH]c3c(=O)n4c(nc3c2c1)SCC4"
units = "%"
quantitative_readout = 6.11

[[record]]
molecule = "COc1ccc(N2CCN(C(=O)c3cc(=O)[nH]c4ccccc34)CC2)cc1"
units = "%"
quantitative_readout = -0.412

[[record]]
molecule = "O=C(O)C(=O)O.O=[N+]([O-])c1ccc(N2CCN(Cc3ccc([N+](=O)[O-])o3)CC2)cc1"
units = "%"
quantitative_readout = -71.1

[[record]]
molecule = "Cc1cccc(N2CCN(C(=O)c3cc(S(=O)(=O)N(C)C)ccc3N3CCCC3)CC2)c1C"
units = "%"
quantitative_readout = -12.3

[[record]]
molecule = "O=[N+]([O-])c1ccc(N2CCN(Cc3ccc(Br)o3)CC2)cc1"
units = "%"
quantitative_readout = -65.1

[[record]]
molecule = "CC1(C)CC(=O)C2=C(C1)Nc1ccccc1N=C2.Cl"
units = "%"
quantitative_readout = -8.52

[[record]]
molecule = "O=C(c1cc([N+](=O)[O-])ccc1N1CCOCC1)N1CCOCC1"
units = "%"
quantitative_readout = 18.1

[[record]]
molecule = "CC(=O)c1ccc(N2CCN(C(=O)c3cc(-c4cccnc4)nc4ccc(Br)cc34)CC2)cc1"
units = "%"
quantitative_readout = 2.5

[[record]]
molecule = "O=[N+]([O-])c1ccc(CN2CCN(c3ccccc3)CC2)o1"
units = "%"
quantitative_readout = 9.7

[[record]]
molecule = "O=C(CC1C(=O)NCCN1Cc1cccc(C(F)(F)F)c1)NCCc1cnccn1 (stereo not drawn)"
units = "%"
quantitative_readout = 7.22

[[record]]
molecule = "Cc1cc(CNC(=O)COc2ccc(C)c(C)c2)c2ccccc2n1"
units = "%"
quantitative_readout = 2.15

[[record]]
molecule = "COc1ccc(N(C)C(=O)c2cn(CC(C)C)c(=O)c3cc(OC)c(OC)cc23)cc1"
units = "%"
quantitative_readout = 8.8

